Test system: androgen receptor
experimentalDetails: androgenic activity rating (procedures described above)
Parameters: key: +: androgenic activity found; ++: high androgenic activity; +++: excellent androgenic activity
measurementContext: rated according to scheme; test procedure not specified
measuredMetric: Result (androgenic activity)

CC[C@H](O)[C@]12C[C@H]1C[C@@H]1[C@H]3[C@H](CC[C@@]12C)[C@H]1CCC(=O)C=C1C[C@H]3C [Example 3a]; ++
C[C@]12CC[C@H]3[C@@H](CCC4=CC(=O)CC[C@@H]43)[C@H]1C[C@@H]1C[C@@]12CO [Example 6]; ++
